test: AUC(0 to 2 hrs) in Sprague-Dawley rat plasma at 3.2 mg/kg, sc by LC-MS/MS analysis; format: ADME, organism-based; design: time < 2 hr, dose 3.2 mg/kg, route subcutaneous
Endpoint Label: AUC(0-t) at 2 h (ng·h/mL)
All answers are understood in ng·h/mL, so give the number only.

-- ask Report measured AUC(0-t) at 2 h; entry is `CNCc1cc(F)c(Cl)cc1Oc1cccc(OC)c1C`
-- reply 302

----------
test: Unbound fraction in Beagle dog plasma at 0.1 mg/kg, sc by LC-MS/MS analysis; type: ADME, organism-based, Canis lupus familiaris; set-up: dose 0.1 mg/kg, route subcutaneous
Endpoint Label: fraction unbound
Answer with a bare number; do not write a unit.

-- ask Tell me its fraction unbound given `Cc1nc2n(c(=O)c1CCN1CCC(c3noc4cc(F)ccc34)CC1)CCCC2` as the entry.
-- reply 0.083

----------
assay: AUC(0 to 7 hrs) in Sprague-Dawley rat plasma at 35 mg/kg, sc by LC-MS/MS analysis; assay type: ADME, organism-based; design: time < 7 hr, dose 35 mg/kg, route subcutaneous
Endpoint Label: AUC(0-t) at 7 h

-- ask Identify measured AUC(0-t) at 7 h associated with `C=C[C@H]1C[N@@]2CC[C@H]1C[C@@H]2[C@@H](O)c1ccnc2ccc(OC)cc12`
-- reply 4920 ng·h/mL

----------
test: Ratio of unbound drug level in brain to plasma in cynomolgus monkey at 0.1 mg/kg, sc by LC-MS/MS analysis; format: ADME, organism-based, Macaca fascicularis; set-up: dose 0.1 mg/kg, route subcutaneous; settings: brain and plasma
Endpoint Label: Kp uu

                              smiles_record  measurement
0  Cc1nc2n(c(=O)c1CCN1CCC(c3noc4cc(F)ccc34)CC1)CCCC2         0.89

Kindly review the next compound as well.
-- ask Read off the recorded Kp uu for `CC(C)S(=O)(=O)N[C@H]1CCOC[C@@H]1c1ccc(-c2ccc(C#N)s2)cc1`
-- reply 0.73

----------
assay: Unbound fraction in Beagle dog plasma at 1 mg/kg, sc by LC-MS/MS analysis; format: ADME, organism-based, Canis lupus familiaris; parameters: dose 1 mg/kg, route subcutaneous
Endpoint Label: fraction unbound
# answer = number (no unit)

-- ask Find the measured fraction unbound of `CNCc1cc(F)c(Cl)cc1Oc1cccc(OC)c1C` and report it.
-- reply 0.0162

----------
assay: AUC(0 to infinity) in Sprague-Dawley rat brain at 35 mg/kg, sc by LC-MS/MS analysis; format: ADME, organism-based; design: dose 35 mg/kg, route subcutaneous, time infinity
Endpoint Label: AUC(0-inf) (ng·h/mL)
Write down the numeric answer in ng·h/mL and omit the unit.

-- ask Return AUC(0-inf) for the following compound: `C=C[C@H]1C[N@@]2CC[C@H]1C[C@@H]2[C@@H](O)c1ccnc2ccc(OC)cc12`
-- reply 1880

----------
experiment: Ratio of unbound drug level in brain to plasma in Sprague-Dawley rat at 3.2 mg/kg, sc by LC-MS/MS analysis; format: ADME, organism-based; set-up: dose 3.2 mg/kg, route subcutaneous
Endpoint Label: Kp uu

-- ask Tell me Kp uu reported for `CNCc1cc(F)c(Cl)cc1Oc1cccc(OC)c1C`
-- reply 3.9

----------
test: AUC(0 to 2 hrs) in cynomolgus monkey brain at 1 mg/kg, sc by LC-MS/MS analysis; format: ADME, organism-based, Macaca fascicularis; parameters: time < 2 hr, dose 1 mg/kg, route subcutaneous
Endpoint Label: AUC(0-t) at 2 h (ng·h/mL)
Return type: number; implicit unit ng·h/mL.

-- ask Write down AUC(0-t) at 2 h measured for item `CNCc1cc(F)c(Cl)cc1Oc1cccc(OC)c1C`
-- reply 2250

These entries and their values trace back to ChEMBL document CHEMBL3526130.
